meta.source: ChEMBL document CHEMBL1157137

- Subject of test: Cannabinoid receptor 2 (Homo sapiens, UniProt P34972)
- Sequence (P34972 whole entry): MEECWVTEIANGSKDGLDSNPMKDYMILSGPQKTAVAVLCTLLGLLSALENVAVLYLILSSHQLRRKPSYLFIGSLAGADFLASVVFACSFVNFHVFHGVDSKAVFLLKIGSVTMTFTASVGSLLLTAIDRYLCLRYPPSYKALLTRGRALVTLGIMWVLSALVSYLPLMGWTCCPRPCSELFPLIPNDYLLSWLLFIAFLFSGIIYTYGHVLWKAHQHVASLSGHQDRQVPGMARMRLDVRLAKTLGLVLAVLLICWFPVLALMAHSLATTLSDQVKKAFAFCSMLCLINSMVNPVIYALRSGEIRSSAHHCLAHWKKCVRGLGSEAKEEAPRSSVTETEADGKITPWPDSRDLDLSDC
- Protocol description: Displacement of [3H]WIN-55212-2 from human CB2 receptor expressed in CHOK1 cells
Measurement type: IC50

Ask | Sample O=C(NCC1CCCCC1)N1CCN(C(c2ccc(Br)cc2)c2ccccc2Cl)CC1 (stereo not drawn) — what was its IC50?
Reply | > 10 µM

Ask | Would you kindly repeat that for O=C(NC1CCCCC1)N1CCN(C(c2ccc(Cl)cc2)c2ccccc2Cl)CC1 (stereo not drawn) ?
Reply | > 10 µM

Ask | Same read-out for CC(C)(C)NC(=O)N1CCN(C(c2ccc(Cl)cc2)c2ccccc2Cl)CC1 (stereo not drawn) ?
Reply | 4.82 µM

Ask | Repeat with O=C(NCC1CCCCC1)N1CCN(C(c2ccc(Cl)cc2)c2ccccc2Cl)CC1 (stereo not drawn)
Reply | > 10 µM

Ask | Please give the result for Cc1ccccc1C(c1ccc(Cl)cc1)N1CCN(C(=O)NCC2CCCCC2)CC1 (stereo not drawn) too.
Reply | > 10 µM

Ask | Moving on to O=C(NC1CCCCC1)N1CCN(C(c2ccc(Cl)cc2)c2cccc(Cl)c2Cl)CC1 (stereo not drawn)
Reply | > 10 µM

Ask | Please give the result for Cc1ccccc1C(c1ccc(Cl)cc1)N1CCN(C(=O)NC2CCCCCC2)CC1 (stereo not drawn) too.
Reply | > 10 µM

Ask | Record: O=C(NC1CCCCCC1)N1CCN(C(c2ccc(Cl)cc2)c2cccc(Cl)c2Cl)CC1 (stereo not drawn)
Reply | > 10 µM

Ask | Also, O=C(NC1CCCCC1)N1CCN(C(c2ccc(Br)cc2)c2ccccc2Cl)CC1 (stereo not drawn) please.
Reply | > 10 µM

Ask | Query O=C(NC1CCCCCC1)N1CCN(C(c2ccc(Cl)cc2)c2ccc(Cl)cc2Cl)CC1 (stereo not drawn) next
Reply | > 10 µM

Ask | Also, CC(C)(C)NC(=O)N1CCN(C(c2ccc(Br)cc2)c2ccccc2Cl)CC1 (stereo not drawn) please.
Reply | 4.95 µM

Ask | Could you do the same for O=C(NC1CCCCC1)N1CCN(C(c2ccc(Cl)cc2)c2ccc(Cl)cc2Cl)CC1 (stereo not drawn) , please?
Reply | > 10 µM

Ask | Ok, now O=C(NC1CCCCCC1)N1CCN(C(c2ccc(Cl)cc2)c2ccccc2Cl)CC1 (stereo not drawn)
Reply | > 10 µM
